Provide the reported IC50 of each item.
- method_summary: Cytotoxicity against MDR1 deficient human KB cells assessed as decrease in cell viability after 4 days by MTS assay
- Assay type: functional, cell-based
- experimental_setup: 96 h
Numeric answer only, unit nM assumed.

Recorded IC50 for "CC[C@H](C)[C@H](NC(=O)[C@H](NC)C(C)C)C(=O)N(C)[C@H](C[C@@H](OC(C)=O)c1nc(C(=O)N[C@@H](Cc2ccccc2)C[C@H](C)C(=O)OC)cs1)C(C)C" , please? 1.76

Check CC[C@H](C)[C@H](NC(=O)[C@@]1(C)CCCN1C)C(=O)N(C)[C@H](C[C@@H](OC(C)=O)c1nc(C(=O)N[C@@H](Cc2ccccc2)C(O)c2nccs2)cs1)C(C)C (mixture of isomers) too. 8.64

Check "CC[C@H](C)[C@H](NC(=O)C(C)(C)N(C)C)C(=O)N(C)[C@H](C[C@@H](OC(C)=O)c1nc(C(=O)N[C@@H](Cc2ccccc2)C[C@H](C)C(=O)OC)cs1)C(C)C" too. 4.68

Check "CC[C@H](C)[C@H](NC(=O)[C@@]1(C)CCCN1)C(=O)N(C)[C@H](C[C@@H](OC(C)=O)c1nc(C(=O)N[C@@H](Cc2ccccc2)C[C@H](C)C(=O)OC)cs1)C(C)C" too. 18.6

Check "CC[C@H](C)[C@H](NC(=O)[C@H]1CCCCN1C)C(=O)N(C)[C@H](C[C@@H](OC(C)=O)c1nc(C(=O)N[C@@H](Cc2ccccc2)CN2CCOCC2)cs1)C(C)C" too. 1.02

====

Provide the reported IC50 of each item.
- method_summary: Cytotoxicity against human MDA-MB-361/DYT2 cells assessed as decrease in cell viability after 4 days by MTS assay
- Assay type: functional, cell-based
- experimental_setup: MDA-MB-361, 96 h
Numeric answer only, unit nM assumed.

Recorded IC50 for "CC[C@H](C)[C@H](NC(=O)[C@@]1(C)CCCN1C)C(=O)N(C)[C@H](C[C@@H](OC(C)=O)c1nc(C(=O)N[C@@H](Cc2ccc(N)cc2)C[C@H](C)C(=O)O)cs1)C(C)C" , please? 0.9

Check "CC[C@H](C)[C@H](NC(=O)[C@H]1CCCCN1)C(=O)N(C)[C@H](C[C@@H](OC(C)=O)c1nc(C(=O)N[C@@H](Cc2ccccc2)C[C@H](C)C(=O)OC)cs1)C(C)C" too. 1.68

Check "CC[C@H](C)[C@H](NC(=O)[C@H]1CCCCN1C)C(=O)N(C)[C@H](C[C@@H](OC(C)=O)c1nc(C(=O)NCCn2nnc3ccccc32)cs1)C(C)C" too. 0.83

====

- Tested on: KB
- method_summary: Resistance ratio of IC50 for human KB 8.5 cells expressing MDR1 to IC50 for MDR1 deficient human KB cells
- Format: functional
Provide the reported Ratio IC50 of each item.

Recorded Ratio IC50 for "CCNC(=O)O[C@H](C[C@H](C(C)C)N(C)C(=O)[C@@H](NC(=O)[C@@]1(C)CCCN1C)[C@@H](C)CC)c1nc(C(=O)N[C@@H](Cc2ccc(N)cc2)C[C@H](C)C(=O)O)cs1" , please? 6

Check "CC[C@H](C)[C@H](NC(=O)[C@H]1CCCN1C)C(=O)N(C)[C@H](C[C@@H](OC(C)=O)c1nc(C(=O)N[C@@H](Cc2ccccc2)C[C@H](C)C(=O)OC)cs1)C(C)C" too. 6

Check "CC[C@H](C)[C@H](NC(=O)[C@H]1CCCCN1C)C(=O)N(C)[C@H](C[C@@H](OC(C)=O)c1nc(C(=O)N[C@H](CNS(C)(=O)=O)Cc2ccccc2)cs1)C(C)C" too. 36

Check "CC[C@H](C)[C@H](NC(=O)[C@@H]1C[C@@H](O)CN1C)C(=O)N(C)[C@H](C[C@@H](OC(C)=O)c1nc(C(=O)N[C@@H](Cc2ccccc2)C[C@H](C)C(=O)OC)cs1)C(C)C" too. 35

Check "CC[C@H](C)[C@H](NC(=O)[C@H]1CCCCN1C)C(=O)N(C)[C@H](C[C@@H](OC(C)=O)c1nc(C(=O)N[C@@H](Cc2ccccc2)[C@@H](O)C(=O)OC)cs1)C(C)C" too. 11

Check "CC[C@H](C)[C@H](NC(=O)[C@H]1CCCCN1C)C(=O)N(C)[C@H](C[C@@H](OC(C)=O)c1nc(C(=O)N[C@@H](Cc2ccccc2)C[C@H](C)C(=O)O)cs1)C(C)C" too. 3

Check "CC[C@H](C)[C@H](NC(=O)[C@@]1(C)CCCN1C)C(=O)N(C)[C@H](C[C@@H](OC(C)=O)c1nc(C(=O)NCCn2nnc3ccccc32)cs1)C(C)C" too. 4

Check "CC[C@H](C)[C@H](NC(=O)[C@H]1CCCCN1C)C(=O)N(C)[C@H](C[C@@H](OC(C)=O)c1nc(C(=O)N[C@@H](Cc2ccccc2)c2nccs2)cs1)C(C)C" too. 4

Check "CC[C@H](C)[C@H](NC(=O)[C@H](NC)C(C)C)C(=O)N(C)[C@H](C[C@@H](OC(C)=O)c1nc(C(=O)N[C@@H](Cc2ccccc2)C[C@H](C)C(=O)OC)cs1)C(C)C" too. 19

Check "CC[C@H](C)[C@H](NC(=O)[C@H]1CCCCN1C)C(=O)N(C)[C@H](C[C@@H](OC(C)=O)c1nc(C(=O)N[C@@H](Cc2ccccc2)C(=O)N2CCCCC2)cs1)C(C)C" too. 5

Check CC[C@H](C)[C@H](NC(=O)[C@@]1(C)CCCN1C)C(=O)N(C)[C@H](C[C@@H](OC(C)=O)c1nc(C(=O)NC(CO)Cc2ccccc2)cs1)C(C)C (mixture of isomers) too. 4

====

- method_summary: Cytotoxicity against human MDA-MB-361/DYT2 cells assessed as decrease in cell viability after 4 days by MTS assay
- Type: functional, cell-based
- experimental_setup: MDA-MB-361, 96 h
recorded_endpoint: IC50
# answer = value followed by unit

Recorded IC50 for "CC[C@H](C)[C@H](NC(=O)[C@@]1(C)CCCN1C)C(=O)N(C)[C@H](C[C@@H](OC(C)=O)c1nc(C(=O)N[C@H](CNS(C)(=O)=O)Cc2ccccc2)cs1)C(C)C" , please? 4.9 nM

Check "CC[C@H](C)[C@H](NC(=O)[C@@]1(C)CCCN1C)C(=O)N(C)[C@H](C[C@@H](OC(C)=O)c1nc(C(=O)N[C@@H](Cc2ccccc2)c2nccs2)cs1)C(C)C" too. 22 nM

Check "CC[C@H](C)[C@H](NC(=O)[C@@]1(C)CCCN1C)C(=O)N(C)[C@H](C[C@@H](OC(C)=O)c1nc(C(=O)NCCc2cscn2)cs1)C(C)C" too. 33.2 nM

Check CC[C@H](C)[C@H](NC(=O)[C@@]1(C)CCCN1C)C(=O)N(C)[C@H](C[C@@H](OC(C)=O)c1nc(C(=O)N[C@@H](Cc2ccccc2)C(O)c2nccs2)cs1)C(C)C (mixture of isomers) too. 6.39 nM

Check "CC[C@H](C)[C@H](NC(=O)[C@H]1CCCN1C)C(=O)N(C)[C@H](C[C@@H](OC(C)=O)c1nc(C(=O)N[C@@H](Cc2ccccc2)C[C@H](C)C(=O)OC)cs1)C(C)C" too. 0.67 nM

Check "CC[C@H](C)[C@H](NC(=O)C(C)(C)N(C)C)C(=O)N(C)[C@H](C[C@@H](OC(C)=O)c1nc(C(=O)N[C@@H](Cc2ccccc2)C[C@H](C)C(=O)OC)cs1)C(C)C" too. 3.37 nM

Check "CC[C@H](C)[C@H](NC(=O)[C@@]1(C)CCCN1C)C(=O)N(C)[C@H](C[C@@H](OC(C)=O)c1nc(C(=O)N[C@@H](Cc2ccccc2)C[C@H](C)C(=O)O)cs1)C(C)C" too. 0.07 nM

Check "CC[C@H](C)[C@H](NC(=O)[C@@]1(C)CCCN1C)C(=O)N(C)[C@H](C[C@@H](OC(C)=O)c1nc(C(=O)N[C@@H](Cc2ccccc2)[C@@H](O)C(=O)OC)cs1)C(C)C" too. 6.09 nM
